Data origin: patent US6369101B1

system: Human laryngeal epithelial carcinoma cells (HEp-2); assay: Cytotoxicity in HEp-2 cells; type: cell-based; conditions: HEp-2 cells; conc. per compound (ng/ml)

molecule	Cell Cytotoxicity
CC1(C)CCC23CC[C@]4(C)C(CCC5[C@@]6(C)CCC(O)C(C)(C)C6CC[C@]54C)C2C1OC3=O (stereo partly drawn)	−
C[C@H]1[C@H](C)CC[C@]2(C(=O)O)CC[C@]3(C)C(=CC[C@@H]4[C@@]5(C)CC[C@H](O)C(C)(C)[C@@H]5CC[C@]43C)[C@H]12	−
CC1(C)CCC23CC[C@]4(C)C(CCC5[C@@]6(C)C=C(O)C(=O)C(C)(C)C6CC[C@]54C)C2C1OC3 (stereo partly drawn)	−
